Taken from ChEMBL document CHEMBL1131038.

# TEST SYSTEM: UniProt P29275
# PROTOCOL DESCRIPTION: Inhibition at 50 uM on cAMP production induced by 50 uM 5`-(N-ethylcarboxamido)adenosine in CHO cell line transfected with human Adenosine A2B receptor cDNA
# Format: cell-based
The following compounds are listed with their measured inhibition values.
Quick note: give the figure in %, leave out the unit.

Please review the entries below; each comes with its answer.
{"SMI": "O=C(/C=C/c1ccccc1)Nc1nc2ccc(Cl)cc2c2nc(-c3ccco3)nn12", "inhibition, %": 38}
{"SMI": "CC(C)(C)OC(=O)Nc1nc2ccc(Cl)cc2c2nc(-c3ccco3)nn12", "inhibition, %": 92}
{"SMI": "CCC(=O)Nc1nc2ccc(Cl)cc2c2nc(-c3ccco3)nn12", "inhibition, %": 66}
{"SMI": "O=C(Cc1cccc(Cl)c1)Nc1nc2ccc(Cl)cc2c2nc(-c3ccco3)nn12", "inhibition, %": 45}
{"SMI": "NCCCCCC(=O)Nc1nc2ccc(Cl)cc2c2nc(-c3ccco3)nn12", "inhibition, %": 79}
{"SMI": "Nc1nc2ccc(Cl)cc2c2nc(-c3ccc(Br)o3)nn12", "inhibition, %": 16}

## Task Form entry - test system: UniProt P29275; read-out: inhibition; compound: CCCC(=O)Nc1nc2ccc(Cl)cc2c2nc(-c3ccco3)nn12
## Result 66

## Task Form: Entry = NCCCCCCC(=O)Nc1nc2ccc(Cl)cc2c2nc(-c3ccco3)nn12 | System = UniProt P29275 | inhibition = ____
## Result 75

## Task Reported inhibition for UniProt P29275, given Oc1nc2ccc(Cl)cc2c2nc(-c3ccco3)nn12 ?
## Result 0

## Task Query inhibition on UniProt P29275 for O=C(CCc1ccccc1)Nc1nc2ccc(Cl)cc2c2nc(-c3ccco3)nn12
## Result 43

## Task Item: NCCC(=O)Nc1nc2ccc(Cl)cc2c2nc(-c3ccco3)nn12 Test system: UniProt P29275 Read-out: inhibition Value: ?
## Result 83

----------
# TEST SYSTEM: Adenosine receptor A2b (Homo sapiens)
# PROTOCOL DESCRIPTION: Inhibition of 50 uM 5`-(N-ethylcarboxamido)adenosine induced cAMP production in CHO cell line expressing human Adenosine A2B receptor at 50 uM
# Type: functional, cell-based
OBSERVED PROPERTY: IC50 (nM)
Form entry: value (nM) — number only.

## Task What does the record list as IC50 for O=C(O)CCCC(=O)Nc1nc2ccc(Cl)cc2c2nc(-c3ccco3)nn12 ?
## Result 1900

----------
# TEST SYSTEM: Adenosine receptor A2b (Homo sapiens, UniProt P29275)
# Sequence (P29275 whole entry): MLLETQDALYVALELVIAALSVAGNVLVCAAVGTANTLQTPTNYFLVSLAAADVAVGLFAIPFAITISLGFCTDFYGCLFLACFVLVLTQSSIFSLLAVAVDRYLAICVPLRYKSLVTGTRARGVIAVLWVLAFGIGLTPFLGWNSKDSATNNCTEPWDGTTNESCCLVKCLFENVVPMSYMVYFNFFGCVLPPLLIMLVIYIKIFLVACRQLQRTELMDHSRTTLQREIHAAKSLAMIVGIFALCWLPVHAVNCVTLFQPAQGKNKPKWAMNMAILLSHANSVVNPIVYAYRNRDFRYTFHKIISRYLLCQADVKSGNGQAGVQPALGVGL
# PROTOCOL DESCRIPTION: Inhibition of 50 uM 5`-(N-ethylcarboxamido)adenosine induced cAMP production in CHO cell line expressing human Adenosine A2B receptor
# Assay type: cell-based
We label by threshold. Values of IC50 strictly beneath 2000 nM are fulfilled. Values of 2000 nM and up are not fulfilled.

Completed entries (count: 5):
{"SMI": "CC(C)(C)OC(=O)Nc1nc2ccc(Cl)cc2c2nc(-c3ccco3)nn12", "CLASSIFICATION": "not fulfilled"}
{"SMI": "Nc1ccc(CC(=O)Nc2nc3ccc(Cl)cc3c3nc(-c4ccco4)nn23)cc1", "CLASSIFICATION": "not fulfilled"}
{"SMI": "NCCC(=O)Nc1nc2ccc(Cl)cc2c2nc(-c3ccco3)nn12", "CLASSIFICATION": "not fulfilled"}
{"SMI": "CC(=O)Nc1nc2ccc(Cl)cc2c2nc(-c3ccco3)nn12", "CLASSIFICATION": "not fulfilled"}
{"SMI": "NCCCCC(=O)Nc1nc2ccc(Cl)cc2c2nc(-c3ccco3)nn12", "CLASSIFICATION": "fulfilled"}

## Task Check if IC50 falls below 2000 nM for NCCCC(=O)Nc1nc2ccc(Cl)cc2c2nc(-c3ccco3)nn12 .
## Result fulfilled

## Task Field: below-cutoff. Rule: recorded IC50 strictly less than 2000 nM. Subject: CC(C)(C)C(=O)Nc1nc2ccc(Cl)cc2c2nc(-c3ccco3)nn12
## Result not fulfilled
